- measurement_protocol: protein stability index of a GFP-peptide fusion (yeast GPS) (PSI 1-4); higher = more stable; sorted into four equal gates, so the index is relative within each strain
- condition_notes: pdr5∆
# reported protein stability index; entries follow
Kindly provide the number alone.

>>> readout_number("HLEEYGYLIQVLLTFLQ [YCS4]")
1.35
>>> readout_number("LRLVDDDENNPSHYPHP [RRP6]")
2.92
>>> readout_number("AVDAKQLAQIRQFLKAN [YML103C/NUP188]")
3.06
>>> readout_number("VAHSSRLANLIDYKLRV [SMB1]")
3.26
>>> readout_number("LSKIKFPESIWKDFTVE [YCG1]")
1.89
>>> readout_number("QEDELDEGTALSRLGLK [RPB10]")
3.38
>>> readout_number("KKWPQFYAAVQKNYADP [SIN4]")
2.09
>>> readout_number("QQPHYIQRTRERKKSIG [DSN1]")
2.85

IN: Tell me the measured protein stability index of NEEAEARRLKNRAARDR [RPL19A] , please.
OUT: 3.32

IN: Next record, please: GEPEAGNKALEDEEEFS [RPC34]
OUT: 3.26

IN: Next record, please: IYAGFGRDTTDYLKNII [RPN2]
OUT: 2.75

IN: Next record, please: DKKASMIISGSRDKTIK [ASC1]
OUT: 2.54

IN: Next record, please: LNKGKKVTSMTPAPKIS [RPL36A]
OUT: 2.98

IN: Next record, please: MGIVQDTLCGIRKLTLR [RPO21]
OUT: 1.74

====

- measurement_protocol: protein stability index of a GFP-peptide fusion (yeast GPS) (PSI 1-4); higher = more stable; sorted into four equal gates, so the index is relative within each strain
- condition_notes: ubr1∆
# reported protein stability index; entries follow

>>> result("YEADQRKLFPNWIKPSD [PRP8]")
2.96

IN: Tell me the measured protein stability index of KERLTKEAAAVAEGKSK [RPL8A] , please.
OUT: 3.1

IN: Next record, please: TGANSIYSVEKKISRLP [UBP6]
OUT: 3.26

IN: Next record, please: LSLVYEIGGSDLKESMV [ECM29]
OUT: 3.28

IN: Next record, please: KILGKGRIPNVPVIVKA [RPL28]
OUT: 3.24

IN: Next record, please: ADEQKRSTDVWYEASTW [ARP7]
OUT: 2.73

IN: Next record, please: LAPTQLSAEYLVILKPD [SIN4]
OUT: 2.38

IN: Next record, please: KTSKRTKRWYKNAGLGF [RPS11A]
OUT: 3.4

IN: Next record, please: LADILKANISLETLEHN [RPO21]
OUT: 2.61

====

- measurement_protocol: protein stability index of a GFP-peptide fusion (yeast GPS) (PSI 1-4); higher = more stable; sorted into four equal gates, so the index is relative within each strain
- condition_notes: pdr5∆
Label T when protein stability index is at or above 2; otherwise label F.

IN: Evaluate HKKKRSNAAGADDAISM [SRB8] : protein stability index at minimum 2?
OUT: T

IN: Next record, please: SPDKIGTFTADYSKPNL [SSN2]
OUT: T

IN: Next record, please: NLQREIDQAHVSEITKL [RPN14]
OUT: T

IN: Next record, please: ISYTSHIEGVVILKKNP [RPN1]
OUT: T

IN: Next record, please: YNGFIDIFSNLSSDDLL [YCS4]
OUT: T

IN: Next record, please: KNGTIVKKAVTVHSKSR [RPL19A]
OUT: T

IN: Next record, please: GSSASSRKAHGLNAKQL [POP1]
OUT: T

IN: Next record, please: QTKRWPTMYTRLCICSG [SIN4]
OUT: F

IN: Next record, please: NLKYLDNSNVMTVKLES [RGR1]
OUT: F

IN: Next record, please: FAKFIHHIHHFEKKELQ [IRR1]
OUT: T

IN: Next record, please: KKVTAFVPNDGCLNFVD [RPS23A]
OUT: T

IN: Next record, please: INKNSKIALREYINNCK [POP4]
OUT: T

IN: Next record, please: SEGYQKTFSRLDALTRH [RPN4]
OUT: F

IN: Next record, please: LPLQPIEIDYTVRVDKA [SNF12]
OUT: T

====

- measurement_protocol: protein stability index of a GFP-peptide fusion (yeast GPS) (PSI 1-4); higher = more stable; sorted into four equal gates, so the index is relative within each strain
- condition_notes: doa10∆
observed_property: protein stability index
Kindly provide the number alone.

Example sequences with recorded protein stability index:
>>> readout_number("LILQRLKDLNLTVSIKI [RGR1]")
1.76
>>> readout_number("RFTPGSFTNYITRSFKE [RPS0A]")
3.03
>>> readout_number("PRINNISAEDRADTDLA [SNF2]")
1.94
>>> readout_number("FSFTEPAQKDSSVVSEP [YOR098C/NUP1]")
3.02
>>> readout_number("KNMPVIYNNIVSNIEGI [RGR1]")
2.43
>>> readout_number("KDNDKNLKFLKNKDSLV [SRB4]")
3.48
>>> readout_number("PFGVSTIFGGVDKNGAH [PRE10]")
3.06
>>> readout_number("LPYPTYWSDKKADTDTL [SNF5]")
2.91
>>> readout_number("SEGEQKSAEGNNIDQSL [YAR002W/NUP60]")
2.98
>>> readout_number("QALRVLRLKPGRKYTTL [RPL16B]")
2.34

IN: Tell me the measured protein stability index of SNSNVTNPSSIFGGAGG [YOR098C/NUP1] , please.
OUT: 2.89

====

- measurement_protocol: protein stability index of a GFP-peptide fusion (yeast GPS) (PSI 1-4); higher = more stable; sorted into four equal gates, so the index is relative within each strain
- condition_notes: san1∆
# class assignment by measured protein stability index: 1 = under 2, 2 = from 2 up to 3, 3 = 3 and over

Reference set (5 entries):
>>> discrete_label("SDELHNQSTIYEDEELS [LIN1]")
3
>>> discrete_label("FQHADNSSMRYGYWFDC [AAR2]")
2
>>> discrete_label("IMYQQMLKYRRLFIGDQ [SNF2]")
1
>>> discrete_label("VEYKLTFVPTNSDKPRD [DIS3]")
1
>>> discrete_label("MWSVARAGQRGYHSRTS [RPL3]")
3

IN: Given RVNEMVQGMNDDIFIRY [ECM29] , name the class its protein stability index places it in.
OUT: 2

IN: Next record, please: TLAITTVTNSKFRSSIL [RPN2]
OUT: 2

IN: Next record, please: KINTRGAEDPKVLINDQ [SWI1]
OUT: 3

IN: Next record, please: NTHYHADYRLILTGTPL [SNF2]
OUT: 1

IN: Next record, please: LSEPLIKIGIRVMKSLS [YCG1]
OUT: 1

IN: Next record, please: PKGATYGKPTNQGVNEL [RPL15A]
OUT: 3

IN: Next record, please: RNISFSDNNSRIMSRNF [SWI1]
OUT: 2

IN: Next record, please: TPANTNNSTSNANTVFS [SWI1]
OUT: 2

====

- measurement_protocol: protein stability index of a GFP-peptide fusion (yeast GPS) (PSI 1-4); higher = more stable; sorted into four equal gates, so the index is relative within each strain
- condition_notes: san1∆
# reported protein stability index; entries follow
Kindly provide the number alone.

>>> readout_number("DLLKFENISLAEFILKN [BRR2]")
2.82
>>> readout_number("ERVPKTQLDKLRPRKDS [SMB1]")
3.09
>>> readout_number("VPLAMGIVSVSDPQMKV [RPN1]")
1.43
>>> readout_number("LTSNISSLVRSCGEEEF [REC8]")
2.21
>>> readout_number("TDKVSLSQPVSASKHEY [SIR4]")
2.24

IN: Tell me the measured protein stability index of EERSNNLLTPQPTNFTT [MCD1] , please.
OUT: 2.91

IN: Next record, please: DMDAESNESQNGKDSEI [SMC3]
OUT: 2.89

IN: Next record, please: KQLQQPKSSPLKKNNYN [SIR4]
OUT: 3.1

IN: Next record, please: ATAFNKTRGPFHFRAPS [RPL16A]
OUT: 2.56

IN: Next record, please: SDLKGKLSSAENANADL [YIL149C/MLP2]
OUT: 3.17

====

- measurement_protocol: protein stability index of a GFP-peptide fusion (yeast GPS) (PSI 1-4); higher = more stable; sorted into four equal gates, so the index is relative within each strain
- condition_notes: san1∆
observed_property: protein stability index
Kindly provide the number alone.

Example sequences with recorded protein stability index:
>>> readout_number("KRIKPNTEITQKSSKEN [ECM29]")
2.98
>>> readout_number("FFMSERSSRLHIVYSLL [YML103C/NUP188]")
1.55
>>> readout_number("KIYNFGELLHHPIMETI [RPN9]")
1.84
>>> readout_number("LKEQSEQLKEQMEDMEE [SMC4]")
3.3
>>> readout_number("SKLDIYTQQQALEYIGA [RET1]")
2.59

IN: Tell me the measured protein stability index of LERLTLVFCKHITSVPI [GRR1] , please.
OUT: 1.17

IN: Next record, please: PKYESLKLEYYNLLVKI [RPN5]
OUT: 1.12

IN: Next record, please: VDQNPLTMHKIIQLILW [SRB8]
OUT: 1.23

Data origin: the supplement of paper PMC9732359
